B1: CPEB3 Ribozyme (parent)
chain: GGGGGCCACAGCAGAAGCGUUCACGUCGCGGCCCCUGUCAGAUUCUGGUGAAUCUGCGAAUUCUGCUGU

- Variants of: B1
- test_protocol: self-cleavage, relative activity (ratio to wild type); higher = more cleavage; co-transcriptional

mutations: A10U A52U
self-cleavage: 1.02
--
mutations: G3U U61G
self-cleavage: 0.114
--
mutations: G1A A23G
self-cleavage: 0.139
--
mutations: G3U G11A
self-cleavage: 0.125
--
mutations: A8C G68A
self-cleavage: 1.02
--
mutations: C57A A59C
self-cleavage: 0.335
--
mutations: C33U C66A
self-cleavage: 0.884
--
mutations: G5C C32A
self-cleavage: 0.805
--
mutations: U53C U67G
self-cleavage: 0.822
--
mutations: C22G C66U
self-cleavage: 0.182
--
mutations: U53G C54A
self-cleavage: 0.873
